Sourced from BigSolDB 2.1

Conditions: in anisole, 323.15 K
measured endpoint: solubility (mole fraction)
Would you mind answering with just the numeric figure?

*Q* Give the measured solubility (mole fraction) of O=[N+]([O-])c1ccc(Oc2ccc([N+](=O)[O-])cc2)cc1 .
*A* 0.0893

* * *

Details: in DMAc, 308.15 K
measured endpoint: solubility (mole fraction)
Would you mind answering with just the numeric figure?

*Q* Give the measured solubility (mole fraction) of O=[N+]([O-])c1ccc(Oc2ccc([N+](=O)[O-])cc2)cc1 .
*A* 0.126

* * *

Settings: in 1,4-dioxane, 298.15 K
measured endpoint: solubility (mole fraction)
Would you mind answering with just the numeric figure?

*Q* Give the measured solubility (mole fraction) of O=[N+]([O-])c1ccc(Oc2ccc([N+](=O)[O-])cc2)cc1 .
*A* 0.0489

* * *

Settings: in methanol, 283.15 K
measured endpoint: solubility (mole fraction)
Would you mind answering with just the numeric figure?

*Q* Give the measured solubility (mole fraction) of O=[N+]([O-])c1ccc(Oc2ccc([N+](=O)[O-])cc2)cc1 .
*A* 0.000259

* * *

Conditions: in DMF, 283.15 K
measured endpoint: solubility (mole fraction)
Would you mind answering with just the numeric figure?

*Q* Give the measured solubility (mole fraction) of O=[N+]([O-])c1ccc(Oc2ccc([N+](=O)[O-])cc2)cc1 .
*A* 0.0524
